Each recorded value in this set is attributed to PubChem BioAssay (NCATS).

- assay-notes: qHTS Screen of the MIPE 4.0 Collection Against Ewings Sarcoma (EW8) (AID 1259255);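 note: 100% = DMSO-treated cells and 0% = medium-only wells without cells; nearly all actives have a fitted effect of over 35% in size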
- protocol-conditions: EW8 Ewing sarcoma viability, CellTiter-Glo, 48 h; series mostly up to 45.8 µM
- Description: There is a large unmet medical need for treatments for Ewing sarcoma, a pediatric sarcoma. […] Using the NCATS developed oncology compound library called the Mechanism of Interrogation Plate (MIPE), four Ewing sarcoma cell lines were evaluated (TC32, TC71, RDES, EW8). Compounds, in a 12-point titration series, were incubated with cells for 48 hours and the read out was cell viability (CellTiter-Glo from Promega). […]
Inconclusive results are not listed. The source made the active and inactive calls. Calls come from the whole dose curve; as a rule, active = well fitted inhibition curve with a large enough effect; inconclusive = small, poorly fitted or top-dose-only effect; inactive = no such curve, though single readings can be large or run the other way.
Outcomes you can answer with include only these: TRUE for active, FALSE for inactive

Take a look at these entries with their results.
Task: Would you mind telling me which call this test gave `CC1=C(C(=O)O)N2C(=O)[C@@H](NC(=O)[C@H](N)C3=CCC=CC3)[C@H]2SC1` ?
Result: FALSE

Task: Would you mind telling me which call this test gave `CCOC(=O)C1=C[C@@H](OC(CC)CC)[C@H](NC(C)=O)[C@@H](N)C1` ?
Result: FALSE

Task: Would you mind telling me which call this test gave Nc1ccn([C@@H]2O[C@H](CO)[C@@H](O)C2O)c(=O)n1 (some centres not stated) ?
Result: FALSE

More entries:
Task: Would you mind telling me which call this test gave O=C1c2c(O)cc(O)cc2OC(c2ccc(O)c(O)c2)C1O (configuration not stated) ?
Result: FALSE

Task: Would you mind telling me which call this test gave `CC(C)Oc1ccc2c(=O)c(-c3ccccc3)coc2c1` ?
Result: FALSE

---

- System: OV90
- assay-notes: Primary qHTS to identify gynecologic anti-cancer compounds using libraries of approved drugs and bioactive compounds (AID 1345084); note: nearly all actives have a fitted effect of over 55% in size
- protocol-conditions: Gynecologic cancer cell panel viability, ATPlite luminescence, 48 h; series mostly up to 57.5 µM
Results filed as inconclusive are left out. Activity calls are given as the source filed them. Calls follow the shape of the dose curve; as a rule, active = well fitted cell-killing curve with a large enough effect; inconclusive = small, poorly fitted or top-dose-only effect, or effect the other way; inactive = flat fitted curve, though single readings scatter.
recorded-endpoint: outcome

See these solved cases before continuing.
Task: Recorded outcome of `Cc1cc2cc3c(C)cc(=O)oc3c(C)c2o1` , please.
Result: inactive

Task: Recorded outcome of COc1cc2nc(N3CCN(C(=O)C4CCCO4)CC3)nc(N)c2cc1OC (stereo unspecified) , please.
Result: inactive

Task: Recorded outcome of `CS(=O)(=O)OCCCCOS(C)(=O)=O` , please.
Result: inactive

Task: Recorded outcome of `O=C(O)c1cc(=O)c2c(OCC(O)COc3cccc4oc(C(=O)O)cc(=O)c34)cccc2o1` , please.
Result: inactive

Task: Recorded outcome of `N=C(N)c1ccc2cc(OC(=O)c3ccc(N=C(N)N)cc3)ccc2c1` , please.
Result: inactive

# ---- query compound ----
Task: Recorded outcome of `Cc1ccc(C(=O)c2cc(O)c(O)c([N+](=O)[O-])c2)cc1` , please.
Result: inactive

---

- System: DIV30
- assay-notes: qHTS profiling for inhibitors of Plasmodium falciparum proliferation (AID 504749); note: nearly all actives have a fitted effect of over 60% in size
- protocol-conditions: P. falciparum in erythrocytes, SYBR Green DNA, 72 h; series mostly up to 28.7 µM
- Procedure: NIH National Institute of Allergy and Infectious Diseases [NIAID] NIH Chemical Genomics Center [NCGC] […] Because mature erythrocytes lack DNA, only Plasmodium-derived DNA is detected. NCGC Assay Protocol Summary: The SYBR Green viability assay was adapted from a method described previously (Plouffe et al., 2008). […] The following morning, fluorescence intensity at 485(14) nm excitation and 535(25) nm emission wavelengths was measured on an EnVision (Perkin Elmer) plate reader. […]
Inconclusive results are not listed. Activity calls are given as the source filed them. Calls follow the shape of the dose curve; as a rule, active = well fitted inhibition curve with a large enough effect; inconclusive = small, poorly fitted or top-dose-only effect; inactive = flat fitted curve, though single readings scatter.
Outcomes you can answer with include only these: 1.0 = active, 0.0 = inactive

Take a look at these entries with their results.
Task: Would you mind telling me which call this test gave `CN(C)CCc1c[nH]c2ccc(Cn3cncn3)cc12` ?
Result: 0.0

Task: Would you mind telling me which call this test gave COCCCOc1ccnc(CS(=O)c2nc3ccccc3[nH]2)c1C (stereo unspecified) ?
Result: 0.0

Task: Would you mind telling me which call this test gave `O=c1oc2cc(O)ccc2s1` ?
Result: 0.0

Task: Would you mind telling me which call this test gave CC(S)C(=O)NCC(=O)O (stereo unspecified) ?
Result: 0.0

Task: Would you mind telling me which call this test gave `CC(C)(S)[C@@H](N)C(=O)O` ?
Result: 0.0

Task: Would you mind telling me which call this test gave `C[C@]12CCC(=O)C=C1CC[C@@H]1[C@H]2[C@@H](O)C[C@@]2(C)[C@H]1CC[C@]2(O)C(=O)CO` ?
Result: 0.0

More entries:
Task: Would you mind telling me which call this test gave COc1ccc(C2(C#N)CCC(C(=O)O)CC2)cc1OC1CCCC1 (stereo unspecified) ?
Result: 0.0

Task: Would you mind telling me which call this test gave `N=C(N=C(N)N)N1CCOCC1` ?
Result: 0.0

Task: Would you mind telling me which call this test gave `O=C(O)c1cc(=O)c2c(OCC(O)COc3cccc4oc(C(=O)O)cc(=O)c34)cccc2o1` ?
Result: 0.0

Task: Would you mind telling me which call this test gave `CNC[C@H](O)c1ccc(O)c(O)c1` ?
Result: 0.0

Task: Would you mind telling me which call this test gave `CCCCc1ccc2nc(NC(=O)OC)[nH]c2c1` ?
Result: 0.0

Task: Would you mind telling me which call this test gave COC(=O)C1=C(C)NC(C)=C(C(=O)OCCCN2CCC(c3ccccc3)(c3ccccc3)CC2)C1c1cccc([N+](=O)[O-])c1 (stereo unspecified) ?
Result: 1.0

Task: Would you mind telling me which call this test gave `CC1(C)NC(=O)N(c2ccc([N+](=O)[O-])c(C(F)(F)F)c2)C1=O` ?
Result: 0.0

Task: Would you mind telling me which call this test gave `O=C1c2ccccc2-c2n[nH]c3cccc1c23` ?
Result: 0.0

Task: Would you mind telling me which call this test gave Cc1c(OCC(F)(F)F)ccnc1CS(=O)c1nc2ccccc2[nH]1 (stereo unspecified) ?
Result: 0.0

Task: Would you mind telling me which call this test gave CCN(CCO)CCCC(C)Nc1ccnc2cc(Cl)ccc12 (stereo unspecified) ?
Result: 0.0

Task: Would you mind telling me which call this test gave `CNC[C@@H](O)[C@@H](O)[C@H](O)[C@H](O)CO` ?
Result: 0.0

Task: Would you mind telling me which call this test gave `Cc1c(C(=O)NN2CCCCC2)nn(-c2ccc(Cl)cc2Cl)c1-c1ccc(Cl)cc1` ?
Result: 1.0

Task: Would you mind telling me which call this test gave `CC1(C)CCC(C)(C)c2cc(NC(=O)c3ccc(C(=O)O)cc3)ccc21` ?
Result: 0.0

Task: Would you mind telling me which call this test gave `CCN(CC)CCOc1ccc(Cc2ccccc2)cc1` ?
Result: 0.0

Task: Would you mind telling me which call this test gave CCCCN(CCCC)CCC(O)c1cc2c(Cl)cc(Cl)cc2c2cc(C(F)(F)F)ccc12 (stereo unspecified) ?
Result: 1.0
